Experiment: Photochemical cleavage assays of incorporated nucleotide analogs (365 nm UV light, DT50)
Format: physicochemical
Conditions: Table 1, C^7-HOMedA analogs; 1 mM NaN3, 50 mM DTT; 365 nm UV, 0.70 W/cm^2; average ± 1SD, triplicate

[
  {
    "compound": "CC(C)C(OCc1cn([C@H]2C[C@H](O)[C@@H](COP(=O)(O)OP(=O)(O)OP(=O)(O)O)O2)c2ncnc(N)c12)c1ccccc1[N+](=O)[O-] (single isomer, unassigned) [dA.III.a ds1]",
    "DT50 in 1 mM NaN3, 50 mM DTT": "4.4 ± 0.2 s"
  },
  {
    "compound": "COc1ccc(C(OCc2cn([C@H]3C[C@H](O)[C@@H](COP(=O)(O)OP(=O)(O)OP(=O)(O)O)O3)c3ncnc(N)c23)C(C)C)c([N+](=O)[O-])c1 (single isomer, unassigned) [dA.III.b ds2]",
    "DT50 in 1 mM NaN3, 50 mM DTT": "1.0 ± 0.1 s"
  },
  {
    "compound": "CC(C)C(OCc1cn([C@H]2C[C@H](O)[C@@H](COP(=O)(O)OP(=O)(O)OP(=O)(O)O)O2)c2ncnc(N)c12)c1c([N+](=O)[O-])cccc1[N+](=O)[O-] (single isomer, unassigned) [dA.III.c ds1]",
    "DT50 in 1 mM NaN3, 50 mM DTT": "3.0 ± 0.2 s"
  },
  {
    "compound": "CC(C)C(OCc1cn([C@H]2C[C@H](O)[C@@H](COP(=O)(O)OP(=O)(O)OP(=O)(O)O)O2)c2ncnc(N)c12)c1c([N+](=O)[O-])cccc1[N+](=O)[O-] (single isomer, unassigned) [dA.III.c ds2]",
    "DT50 in 1 mM NaN3, 50 mM DTT": "2.5 ± 0.1 s"
  },
  {
    "compound": "COc1ccc(C(OCc2cn([C@H]3C[C@H](O)[C@@H](COP(=O)(O)OP(=O)(O)OP(=O)(O)O)O3)c3ncnc(N)c23)C(C)C)c([N+](=O)[O-])c1 (single isomer, unassigned) [dA.III.b ds1]",
    "DT50 in 1 mM NaN3, 50 mM DTT": "6.1 ± 0.4 s"
  },
  {
    "compound": "Nc1ncnc2c1c(COCc1ccccc1[N+](=O)[O-])cn2[C@H]1C[C@H](O)[C@@H](COP(=O)(O)OP(=O)(O)OP(=O)(O)O)O1 [dA.I]",
    "DT50 in 1 mM NaN3, 50 mM DTT": "3.5 ± 0.1 s"
  },
  {
    "compound": "CC(C)C(OCc1cn([C@H]2C[C@H](O)[C@@H](COP(=O)(O)OP(=O)(O)OP(=O)(O)O)O2)c2ncnc(N)c12)c1ccccc1[N+](=O)[O-] (single isomer, unassigned) [dA.III.a ds2]",
    "DT50 in 1 mM NaN3, 50 mM DTT": "2.1 ± 0.1 s"
  }
]

Origin of measurements: patent US10041115B2
